experiment: Solubility at pH 7.4; assay type: physicochemical; conditions: aqueous buffer; pH 7.4; 6-5 ring core; read-out: Solubility at pH 7.4
solubility for assorted molecules
Numeric answer only, unit µM assumed.

INSERT INTO assay_data (molecule, parametermeasured, unitstext, valuereported) VALUES
  ('COc1ccc(-n2cnc3cc(C(=O)N4CCC(F)(F)CC4)cnc32)cc1 [drawing 191]', 'solubility', 'µM', 140),
  ('O=C(c1ccc2c(c1)ncn2-c1cccc(Cl)c1)N1CC2CCCC2C1 (stereo not drawn) [drawing 215]', 'solubility', 'µM', 33),
  ('O=C(c1cnc2c(c1)ncn2-c1cccc(Cl)c1)N1CCCCC1 [drawing 219]', 'solubility', 'µM', 150),
  ('O=C(c1ccc2c(c1)ncn2-c1cccc(Cl)c1)N1CC2(CCC2)C1 [drawing 212]', 'solubility', 'µM', 16),
  ('COc1ccc(-n2c(C3CC3)nc3cc(C(=O)N4CCCCC4)ccc32)cc1 [drawing 218]', 'solubility', 'µM', 45),
  ('COc1ccc(-n2cnc3cc(C(=O)N4CCC(F)CC4)ccc32)cc1 [drawing 222]', 'solubility', 'µM', 160);

Request: Annotate the molecule COc1ccc(-n2cnc3cc(C(=O)N4CCC(F)CC4)cnc32)cc1 [drawing 192] with its measured solubility.
Result: 140

Request: Annotate the molecule O=C(c1ccc2c(c1)ncn2-c1cccc(Cl)c1)N1CCCCC1 [drawing 211] with its measured solubility.
Result: 120

====

biological target: 15-PGDH/HPGD (Homo sapiens (Human), UniProt P15428); test: hPGDH inhibitor screening biochemical assay; conditions: read-out: hPGDH: Average IC50
Sequence (P15428 whole entry): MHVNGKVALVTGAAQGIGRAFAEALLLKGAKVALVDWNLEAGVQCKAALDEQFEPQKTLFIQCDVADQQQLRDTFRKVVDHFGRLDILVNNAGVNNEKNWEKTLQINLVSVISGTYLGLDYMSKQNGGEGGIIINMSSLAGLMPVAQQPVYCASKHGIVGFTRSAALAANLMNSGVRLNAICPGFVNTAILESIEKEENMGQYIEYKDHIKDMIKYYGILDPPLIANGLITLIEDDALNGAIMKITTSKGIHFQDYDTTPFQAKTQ
pIC50: −log10 of the molar value.
parameterMeasured: pIC50

INSERT INTO measurements (smilesstructure, parametermeasured, valuereported) VALUES
  ('N#Cc1ccc(-n2cc(Cl)c3cc(C(=O)N4CCC(F)CC4)cnc32)cc1', 'pIC50', '> 7.00'),
  ('COCCc1nc2cc(C(=O)N3CCC(F)CC3)ccc2n1-c1ccc(OC)cc1', 'pIC50', '6.00 to 7.00'),
  ('O=C(c1cnc2c(c1)c(Cl)cn2-c1cncc(Cl)c1)N1CCCCC1', 'pIC50', '> 7.00');

Request: Annotate the compound "COc1ccc(-n2c(CCC(F)(F)F)nc3cc(C(=O)N4CCC(F)CC4)cnc32)cc1" with its measured pIC50.
Result: 6.00 to 7.00

Request: Annotate the compound "O=C(c1cnc2c(ccn2-c2cncc(NS(=O)(=O)C3CC3)c2)c1)N1CCC(F)(F)CC1" with its measured pIC50.
Result: > 7.00

Request: Annotate the compound "COc1ccc(-n2ccc3cc(C(=O)N4CCCCC4)cnc32)cc1" with its measured pIC50.
Result: > 7.00

====

assay: Liver microsome stability assay (RLM); format: in vitro ADME; details: rat liver microsomes
parameterMeasured: RLM + NADPH (% remaining at 45 min) (%)
Numeric answer only, unit % assumed.

INSERT INTO results (smilesstructure, valuereported) VALUES
  ('COc1ccc(-n2nnc3cc(C(=O)N4CCCCC4)ccc32)cc1', 34),
  ('Cc1ncc(-n2cc(Cl)c3cc(C(=O)N4CCC(F)CC4)cnc32)cn1', 69),
  ('COc1ccc(-n2nc(Cl)c3cc(C(=O)N4CCC(F)CC4)ccc32)cc1', 46),
  ('COc1ccc(-n2nc(Cl)c3cc(C(=O)N4CCCCC4)ccc32)cc1', 22);

Here is the next item to consider.
Request: Annotate the compound "O=C(c1cnc2c(c1)ncn2-c1ccc(F)c(F)c1)N1CCCCC1" with its measured RLM + NADPH (% remaining at 45 min).
Result: 34

====

biological target: 15-PGDH/HPGD (Homo sapiens (Human)); test: hPGDH inhibitor screening biochemical assay; conditions: read-out: hPGDH: Average IC50
parameterMeasured: IC50

Study these solved cases before continuing.
INSERT INTO assay_data (compound, valuereported) VALUES
  ('COc1ccc(-n2c(N)nc3cc(C(=O)N4CCC(F)CC4)cnc32)cc1 [MF-DH-115]', '100 to 1000 nM'),
  ('COc1ccc(-n2c(CCC(F)(F)F)nc3cc(C(=O)N4CCCCC4)cnc32)cc1 [MF-DH-268]', '100 to 1000 nM'),
  ('O=C(c1ccc2c(c1)c(Cl)nn2-c1cncc(Cl)c1)N1CCCCC1 [MF-DH-271]', '100 to 1000 nM');

Request: Give IC50; test system 15-PGDH/HPGD (Homo sapiens (Human)); compound N#Cc1ncc(-n2ccc3cc(C(=O)N4CCCCC4)cnc32)cn1 [MF-DH-397]
Result: < 100 nM

Request: Give IC50; test system 15-PGDH/HPGD (Homo sapiens (Human)); compound COc1ccc(-n2ccc3cc(C(=O)N4CCC(c5ccccc5)CC4)cnc32)cc1 [MF-DH-325]
Result: ≥ 1000 nM

Request: Give IC50; test system 15-PGDH/HPGD (Homo sapiens (Human)); compound CCOC(=O)c1nc2cc(C(=O)N3CCCCC3)ccc2n1-c1cccc(Cl)c1 [MF-PGDH-027]
Result: < 100 nM

Request: Give IC50; test system 15-PGDH/HPGD (Homo sapiens (Human)); compound COc1ccc(-n2ccc3cc(C(=O)N4CCN(CC(F)(F)F)CC4)cnc32)cc1 [MF-DH-327]
Result: ≥ 1000 nM

Request: Give IC50; test system 15-PGDH/HPGD (Homo sapiens (Human)); compound COc1ccc(-n2ccc3cc(C(=O)N4CCC(F)CC4)cnc32)cn1 [MF-DH-157]
Result: < 100 nM

====

Assay: Liver microsome stability assay (MLM)
Format: in vitro ADME
Conditions: mouse liver microsomes
Description: A microsomal mixture (microsomes and Kphos buffer) was prepared at a concentration of 1.428 mg/mL in 2 mL tubes. […] (Verapamil in human liver microsomes (HLM) and rat liver microsomes (RLM) was used as positive controls. Imipramine in mouse liver microsomes (MLM) was used as a positive control.) Samples were monitored for parent compound disappearance in MRM mode (multiple reaction monitoring) using LC-MS/MS. […]
Simple rule here: MLM + NADPH (% remaining at 45 min) less than 70% is rule met, otherwise rule not met.

The examples below pair each entry with its known result.
INSERT INTO measurements (compound, discretelabel) VALUES
  ('CC(C)(C)NC(=O)c1cncc(-n2ccc3cc(C(=O)N4CCC(F)(F)CC4)cnc32)c1 [MF-DH-448]', 'rule not met'),
  ('CC(C)(C)NC(=O)c1ccc(-n2ccc3cc(C(=O)N4CCC(F)(F)CC4)cnc32)cn1 [MF-DH-406]', 'rule met'),
  ('O=C(O)c1ccc(-n2ccc3cc(C(=O)N4CCC(F)(F)CC4)cnc32)cc1 [MF-DH-424]', 'rule not met'),
  ('N/C(=N\O)c1cccc(-n2ccc3cc(C(=O)N4CCCCC4)cnc32)c1 [MF-DH-400]', 'rule met'),
  ('CC(C)NC(=O)c1ccc(-n2ccc3cc(C(=O)N4CCC(F)(F)CC4)cnc32)cc1 [MF-DH-404]', 'rule not met');

Request: Input O=C(O)c1ccc(-n2ccc3cc(C(=O)N4CCC(F)(F)CC4)cnc32)cn1 [MF-DH-434] ; condition: MLM + NADPH (% remaining at 45 min) strictly below 70%. Does it hold?
Result: rule not met

Request: Input C[C@@H]1C[C@H](C)CN(C(=O)c2cnc3c(ccn3-c3ccc(C(N)=O)cc3)c2)C1 [MF-DH-395] ; condition: MLM + NADPH (% remaining at 45 min) strictly below 70%. Does it hold?
Result: rule met

Request: Input NCCNC(=O)c1cccc(-n2ccc3cc(C(=O)N4CCC(F)(F)CC4)cnc32)c1 [MF-DH-467] ; condition: MLM + NADPH (% remaining at 45 min) strictly below 70%. Does it hold?
Result: rule not met

Request: Input CCOC(=O)Nc1cncc(-n2ccc3cc(C(=O)N4CCC(F)(F)CC4)cnc32)c1 [MF-DH-485] ; condition: MLM + NADPH (% remaining at 45 min) strictly below 70%. Does it hold?
Result: rule not met

Request: Input NC(=O)c1cncc(-n2cc(Cl)c3cc(C(=O)N4CCC(F)(F)CC4)cnc32)c1 [MF-DH-482] ; condition: MLM + NADPH (% remaining at 45 min) strictly below 70%. Does it hold?
Result: rule not met

====

target: 15-PGDH/HPGD (Homo sapiens (Human), UniProt P15428); assay: hPGDH inhibitor screening biochemical assay; conditions: PGDH inhibitors with a 6-5 ring core; read-out: hPGDH: IC50
parameterMeasured: IC50 (nM)
Numeric answer only, unit nM assumed.

Request: Give IC50; test system 15-PGDH/HPGD (Homo sapiens (Human), UniProt P15428); compound O=C(c1cnc2c(ccn2-c2cccc(Cl)c2)c1)N1CCCCC1 [drawing 216]
Result: 1.5

====

biological target: 15-PGDH/HPGD (Homo sapiens (Human)); experiment: hPGDH inhibitor screening biochemical assay; conditions: read-out: hPGDH: Average IC50
pIC50: −log10 of the molar value.
parameterMeasured: pIC50

INSERT INTO measurements (compound, system, parametermeasured, valuereported) VALUES
  ('CN(C)c1ccc(-n2ccc3cc(C(=O)N4CCC(F)CC4)cnc32)cc1', '15-PGDH/HPGD (Homo sapiens (Human))', 'pIC50', '> 7.00'),
  ('COc1ccccc1C(=O)Nc1ccc(C(=O)N2CCCCC2)cc1', '15-PGDH/HPGD (Homo sapiens (Human))', 'pIC50', '> 7.00'),
  ('O=C(c1ccc2c(c1)ncn2-c1cccc(Cl)c1)N1CC2(CCC2)C1', '15-PGDH/HPGD (Homo sapiens (Human))', 'pIC50', '> 7.00'),
  ('CC(N)c1cccc(-n2ccc3cc(C(=O)N4CCCCC4)cnc32)c1 (centres unmarked)', '15-PGDH/HPGD (Homo sapiens (Human))', 'pIC50', '6.00 to 7.00');

Here is the next item to consider.
Request: Annotate the compound "NCc1ccc(-n2ccc3cc(C(=O)N4CCCCC4)cnc32)cc1" with its measured pIC50.
Result: > 7.00
